Ref: paper PMC9295122

Provide the reported Average 3 of each item.
Biological target: SaSiaT (Staphylococcus aureus)
Sequence (A0A0H2XJ46 entry or part of it): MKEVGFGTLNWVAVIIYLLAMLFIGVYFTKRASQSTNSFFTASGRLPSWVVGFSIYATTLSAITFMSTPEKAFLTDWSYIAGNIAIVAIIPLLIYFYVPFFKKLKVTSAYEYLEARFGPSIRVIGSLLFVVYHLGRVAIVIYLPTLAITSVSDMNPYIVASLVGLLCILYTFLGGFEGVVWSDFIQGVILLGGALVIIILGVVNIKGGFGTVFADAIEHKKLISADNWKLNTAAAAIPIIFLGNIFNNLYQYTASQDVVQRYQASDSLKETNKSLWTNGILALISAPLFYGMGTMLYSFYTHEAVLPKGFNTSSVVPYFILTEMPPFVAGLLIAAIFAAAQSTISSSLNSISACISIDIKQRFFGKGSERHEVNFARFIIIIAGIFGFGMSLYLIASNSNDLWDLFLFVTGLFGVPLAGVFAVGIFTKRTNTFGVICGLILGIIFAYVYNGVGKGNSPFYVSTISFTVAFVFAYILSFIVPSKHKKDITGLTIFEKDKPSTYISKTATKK
Experiment: nanoDSF thermal shift assay, SaSiaT
Format: binding
Details: SaSiaT Tm, average of experiment 3
Procedure: Nano-differential scanning fluorimetry (nanoDSF) is a high-throughput method that relies on the thermal stabilization of the folded protein state by a bound ligand.[33] The melting points of protein–inhibitor complexes were measured on a Prometheus NT.48 instrument from NanoTemper Technologies. […] The fluorescence was recorded at 330 and 350 nm and as a ratio of the two wavelengths. […] The melting temperatures have been measured in 3 separate experiments. […] This is calculated from Average 1. […]
Numbers only, in °C.

Consider the reported Average 3 for these compounds:
| COMPOUND | Average 3, °C |
| --- | --- |
| CC(C)(C)C(=O)NC1C(O)CC(O)(C(=O)O)OC1C(O)C(O)CO (stereo not drawn) | 43.8 |
| O=C(CO)N[C@H]1[C@H]([C@H](O)[C@H](O)CO)OC(O)(C(=O)O)C[C@@H]1O (stereo partly drawn) [Neu5Gc, 5-N-glycolyl neuraminic acid, reference compound] | 53.6 |

Kindly consider the entry below.
Task item: Could you tell me which Average 3 is on file for CC(=O)NC1C(O)CC(O)(C(=O)O)OC1C(O)C(O)CN=[N+]=[N-] (stereo not drawn) ?
Reply: 48.5
